# key: entry, value: pEC50
System: 5C.C7 RAG2−/− lymphocytes
Format: cell-based, mouse
Conditions: 3 h
pEC50: −log10 of the molar value. Where no end group is shown, it is not given here.
recorded.metric: pEC50

[
  {
    "sequence.content": "ANERADLIAYLKQATK [MCC, moth cytochrome c (MCC) peptide]",
    "recorded.metric": "pEC50",
    "recorded.value": 7.42
  },
  {
    "sequence.content": "ANERADLIAYLKQASK [102S]",
    "recorded.metric": "pEC50",
    "recorded.value": 6.80
  },
  {
    "sequence.content": "ANERADLIAYPKAATKF [K3]",
    "recorded.metric": "pEC50",
    "recorded.value": 7.60
  },
  {
    "sequence.content": "ANERADLIAYFKAATKF [K5]",
    "recorded.metric": "pEC50",
    "recorded.value": 7.76
  }
]
